# TARGET_SYSTEM: T1, recombinant human CTLA4-Fc (Sino Biological, 11159-H03H) (human, UniProt P16410 37-162)
# T1 construct: bought; whole entry named; Biotinylated in the yeast display assays; also called human CTLA4 fused with human FC fragment; biotinylated CTLA4-Fc; not shown: human Fc fragment
# T1 sequence (looked up): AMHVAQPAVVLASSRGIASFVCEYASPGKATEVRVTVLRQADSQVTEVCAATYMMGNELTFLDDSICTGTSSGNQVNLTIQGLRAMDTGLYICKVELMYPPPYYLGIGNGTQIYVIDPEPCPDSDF
# EXPERIMENT: ELISA, coated human CTLA4-Fc, batch 2
Measured EC50 by item
Just the number please, in nM, no unit attached.

{"BINDER": "TY22404 (antibody, IgG1, V domains shown, also called masking peptide B13197) VH: EVQLVESGGGLVQPGGSLRLSCAASGYSISSGYHWSWIRQAPGKGLEWLARIDWDDDKYYSTSLKSRLTISRDNSKNTLYLQLNSLRAEDTAVYYCARSYVYFDYWGQGTLVTVSS VL: EVGSYPNPSSDCVPYYYACAYSGRSAGGGGSPLGLAGSGGSDIQLTQSPSSLSASVGDRVTITCRASQSVRGRFLAWYQQKPGKAPKLLIYDASNRATGIPSRFSGSGSGTDFTLTISSLQPEDFATYYCQQSSSWPPTFGQGTKVEIKR", "EC50 (nM)": 128}

Prompt line: I have this binder here, TY22402 (antibody, IgG1, V domains shown, also called masking peptide B13180) VH: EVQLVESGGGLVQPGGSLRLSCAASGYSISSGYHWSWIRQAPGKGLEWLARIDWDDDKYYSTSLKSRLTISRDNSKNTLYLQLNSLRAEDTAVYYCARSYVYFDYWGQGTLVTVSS VL: EVGSYIVHHSDCDAFYPYCDSSGRSAGGGGSPLGLAGSGGSDIQLTQSPSSLSASVGDRVTITCRASQSVRGRFLAWYQQKPGKAPKLLIYDASNRATGIPSRFSGSGSGTDFTLTISSLQPEDFATYYCQQSSSWPPTFGQGTKVEIKR , and I need its recorded EC50.
Response line: 125

Value source: patent US20210206855A1
